B1: CLPTM1 (parent)
chain: LGCYAVYSLLYLEHKGWYSWVLSM

Variants of: B1
Test: protein stability index of a GFP-peptide fusion (GPS, HEK-293T) (PSI 1-6); higher = more stable;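 further: lentivirally expressed fusions sorted by FACS into six bins by GFP to DsRed ratio, PSI derived from sequencing read proportions per bin multiplied by bin number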
Details: c terminus: a fixed tail appended
property-label: protein stability index
One number for each entry.

Recorded protein stability index, per entry:
> print(dat)
                     sequence.data           property.label  observed
1  LGCYAVYSLLYQEHKGWYSWVLSM [L12Q]  protein stability index      3.59
2  LGCYAVYSLLYLEHKGCYSWVLSM [W17C]  protein stability index      2.36
3  LGCYAVYSLLYLEHKGWYSWVLSH [M24H]  protein stability index      3.76
4   LGCYAVYSGLYLEHKGWYSWVLSM [L9G]  protein stability index      1.77
5  LGCYAVYSLLYLEHKHWYSWVLSM [G16H]  protein stability index      3.98
6  LGCYAVYSLLYLEHKGWFSWVLSM [Y18F]  protein stability index      2.61

Provide reported protein stability index for each item, in the same order as listed.
1. LGCYAVYSLLYLEHKGWVSWVLSM [Y18V]
2. LGCHAVYSLLYLEHKGWYSWVLSM [Y4H]
3. LGCYAVYSLLPLEHKGWYSWVLSM [Y11P]
4. LGCYAVYSLLYLEHKGWYSWKLSM [V21K]
5. LQCYAVYSLLYLEHKGWYSWVLSM [G2Q]
6. LGIYAVYSLLYLEHKGWYSWVLSM [C3I]
7. LGCYAVYSLLYLEAKGWYSWVLSM [H14A]

### Response
[2.95, 2.69, 2.2, 2.12, 3.29, 2.62, 3.68]
